# target or test system: JAK1 (Homo sapiens (Human), UniProt P23458)
# Sequence (P23458 875-1153): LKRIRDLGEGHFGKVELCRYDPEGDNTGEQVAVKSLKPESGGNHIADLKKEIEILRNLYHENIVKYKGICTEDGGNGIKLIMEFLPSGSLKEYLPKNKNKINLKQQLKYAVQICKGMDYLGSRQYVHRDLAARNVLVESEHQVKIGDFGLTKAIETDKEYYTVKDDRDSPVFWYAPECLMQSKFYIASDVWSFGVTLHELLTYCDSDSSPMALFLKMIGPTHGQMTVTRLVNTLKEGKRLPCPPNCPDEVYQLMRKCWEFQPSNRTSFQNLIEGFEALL
# experiment summary: Purified kinase assay (Z'-LYTE), JAK1
# Assay type: biochemical
# condition details: Table 2; read-out: JAK1
measured attribute: IC50

- smiles code: "CC(=O)N1CCN(c2ccc(Nc3cc(NCc4cc(F)cc(F)c4)c(C(N)=O)nn3)cc2)CC1"
  IC50: "> 1 µM"
- smiles code: "CC(=O)N1CCN(c2ccc(Nc3cc(NCc4cccc5[nH]ccc45)c(C(N)=O)nn3)cc2)CC1"
  IC50: "0.01 to 0.1 µM"

Kindly consider the entry below.
Sample CC(=O)N1CCN(c2ccc(Nc3cc(NCc4ccccc4F)c(C(N)=O)nn3)cc2)CC1 ; IC50 observed: > 1 µM
